- Tested on: Splenocyte
- TEST_DESCRIPTION: Induction of apoptosis in Con A-stimulated C57BL/6 mouse splenocytes at 3 uM by flow cytometry
- Format: cell-based
PROPERTY_LABEL: Activity

// below: answered compounds
COMPOUND_SMILES: C[C@@]1(O)CC[C@H]2[C@@H](C=C[C@@]3(C)OC(=O)CC[C@]23C)C1
SYSTEM_TESTED: Splenocyte
PROPERTY_LABEL: Activity
ASSAY_RESULT: Non-Toxic
//
COMPOUND_SMILES: CC(=O)OCCC(=O)[C@]1(C)[C@H]2CC[C@H](C)C[C@@H]2C=C[C@@]1(C)O
SYSTEM_TESTED: Splenocyte
PROPERTY_LABEL: Activity
ASSAY_RESULT: Non-Toxic
//
COMPOUND_SMILES: CC(=O)[C@@]1(C)C(C)=C[C@H](O)[C@H]2C[C@](C)(O)CC[C@@H]21
SYSTEM_TESTED: Splenocyte
PROPERTY_LABEL: Activity
ASSAY_RESULT: Non-Toxic
//
COMPOUND_SMILES: C[C@H]1CC[C@H]2[C@H](C1)[C@@H](O)[C@@H]1O/C(=C\C=O)[C@@]2(C)[C@]1(C)O
SYSTEM_TESTED: Splenocyte
PROPERTY_LABEL: Activity
ASSAY_RESULT: Non-Toxic
//
COMPOUND_SMILES: C[C@@]1(O)CC[C@H]2[C@@H](C=C[C@]3(C)OCC[C@H](O)[C@]23C)C1
SYSTEM_TESTED: Splenocyte
PROPERTY_LABEL: Activity
ASSAY_RESULT: Non-Toxic

Challenge: Give Activity for `C[C@H]1CC[C@H]2[C@H](C1)[C@H](Cl)[C@@H](O)[C@@](C)(O)[C@]2(C)C(=O)CCO`
Response given: Non-Toxic

Challenge: Give Activity for `C[C@@]1(O)CC[C@H]2[C@](O)(C1)[C@@H]1O[C@@H]1[C@@]1(C)OC(=O)CC[C@]21C`
Response given: Non-Toxic

Challenge: Give Activity for `C[C@H]1CC[C@H]2C(=C[C@@H](O)[C@@](C)(O)[C@]2(C)C(=O)CCO)C1`
Response given: Non-Toxic

----------
- Test system: Splenocyte
- TEST_DESCRIPTION: Induction of apoptosis in Con A-stimulated C57BL/6 mouse splenocytes at 3 uM by flow cytometry
- Type: cell-based

COMPOUND_SMILES: C[C@@]1(O)CC[C@H]2[C@H](C1)[C@@H]1O[C@@H]1[C@@]1(C)OC(=O)CC[C@]21C
Activity: Non-Toxic
--
COMPOUND_SMILES: C[C@H]1CC[C@H]2[C@@H](C=C[C@@](C)(O)[C@]2(C)C(=O)CCO)C1
Activity: Non-Toxic
--
COMPOUND_SMILES: CC(=O)OCCC(=O)[C@]1(C)[C@H]2CC[C@@](C)(O)C[C@@H]2C=C[C@@]1(C)O
Activity: Non-Toxic
--
COMPOUND_SMILES: CC(=O)[C@]1(C)[C@H]2CC[C@H](C)C[C@@H]2[C@H](Cl)[C@@H](O)[C@@]1(C)O
Activity: Non-Toxic
